Where do the numbers come from? From patent US20120245137A1.

TGT: T-type calcium channel (Homo sapiens)
ASSAY_REMARKS: T-type channel blocking, FLIPR data (Table 6)
Format: cell-based
MEASUREMENT_CONTEXT: CAv3.2, ratio closed/inactivated IC50
# label = Yes if CAv3.2 IC50 Ratio closed/inact. < 1 else No

INPUT: Dear reviewer, please state whether CC(C)([C@H]1C[C@H](NC(=O)c2ccc(F)c(Cl)c2)C1)S(=O)(=O)c1cccc(OC(F)(F)F)c1 [Compound 634] has CAv3.2 IC50 Ratio closed/inact. strictly beneath 1.
OUTPUT: Yes

Others:
INPUT: Dear reviewer, please state whether CC(C)(C1CC(CNC(=O)c2ccc(Cl)c(F)c2)C1)S(=O)(=O)c1cccc(C(F)(F)F)c1 (centres unmarked) [Compound 617] has CAv3.2 IC50 Ratio closed/inact. strictly beneath 1.
OUTPUT: No

* * *

Known pIC50 of a selection of compounds
TGT: CAv1.2 (Homo sapiens, UniProt Q13936)
Sequence (Q13936 whole entry): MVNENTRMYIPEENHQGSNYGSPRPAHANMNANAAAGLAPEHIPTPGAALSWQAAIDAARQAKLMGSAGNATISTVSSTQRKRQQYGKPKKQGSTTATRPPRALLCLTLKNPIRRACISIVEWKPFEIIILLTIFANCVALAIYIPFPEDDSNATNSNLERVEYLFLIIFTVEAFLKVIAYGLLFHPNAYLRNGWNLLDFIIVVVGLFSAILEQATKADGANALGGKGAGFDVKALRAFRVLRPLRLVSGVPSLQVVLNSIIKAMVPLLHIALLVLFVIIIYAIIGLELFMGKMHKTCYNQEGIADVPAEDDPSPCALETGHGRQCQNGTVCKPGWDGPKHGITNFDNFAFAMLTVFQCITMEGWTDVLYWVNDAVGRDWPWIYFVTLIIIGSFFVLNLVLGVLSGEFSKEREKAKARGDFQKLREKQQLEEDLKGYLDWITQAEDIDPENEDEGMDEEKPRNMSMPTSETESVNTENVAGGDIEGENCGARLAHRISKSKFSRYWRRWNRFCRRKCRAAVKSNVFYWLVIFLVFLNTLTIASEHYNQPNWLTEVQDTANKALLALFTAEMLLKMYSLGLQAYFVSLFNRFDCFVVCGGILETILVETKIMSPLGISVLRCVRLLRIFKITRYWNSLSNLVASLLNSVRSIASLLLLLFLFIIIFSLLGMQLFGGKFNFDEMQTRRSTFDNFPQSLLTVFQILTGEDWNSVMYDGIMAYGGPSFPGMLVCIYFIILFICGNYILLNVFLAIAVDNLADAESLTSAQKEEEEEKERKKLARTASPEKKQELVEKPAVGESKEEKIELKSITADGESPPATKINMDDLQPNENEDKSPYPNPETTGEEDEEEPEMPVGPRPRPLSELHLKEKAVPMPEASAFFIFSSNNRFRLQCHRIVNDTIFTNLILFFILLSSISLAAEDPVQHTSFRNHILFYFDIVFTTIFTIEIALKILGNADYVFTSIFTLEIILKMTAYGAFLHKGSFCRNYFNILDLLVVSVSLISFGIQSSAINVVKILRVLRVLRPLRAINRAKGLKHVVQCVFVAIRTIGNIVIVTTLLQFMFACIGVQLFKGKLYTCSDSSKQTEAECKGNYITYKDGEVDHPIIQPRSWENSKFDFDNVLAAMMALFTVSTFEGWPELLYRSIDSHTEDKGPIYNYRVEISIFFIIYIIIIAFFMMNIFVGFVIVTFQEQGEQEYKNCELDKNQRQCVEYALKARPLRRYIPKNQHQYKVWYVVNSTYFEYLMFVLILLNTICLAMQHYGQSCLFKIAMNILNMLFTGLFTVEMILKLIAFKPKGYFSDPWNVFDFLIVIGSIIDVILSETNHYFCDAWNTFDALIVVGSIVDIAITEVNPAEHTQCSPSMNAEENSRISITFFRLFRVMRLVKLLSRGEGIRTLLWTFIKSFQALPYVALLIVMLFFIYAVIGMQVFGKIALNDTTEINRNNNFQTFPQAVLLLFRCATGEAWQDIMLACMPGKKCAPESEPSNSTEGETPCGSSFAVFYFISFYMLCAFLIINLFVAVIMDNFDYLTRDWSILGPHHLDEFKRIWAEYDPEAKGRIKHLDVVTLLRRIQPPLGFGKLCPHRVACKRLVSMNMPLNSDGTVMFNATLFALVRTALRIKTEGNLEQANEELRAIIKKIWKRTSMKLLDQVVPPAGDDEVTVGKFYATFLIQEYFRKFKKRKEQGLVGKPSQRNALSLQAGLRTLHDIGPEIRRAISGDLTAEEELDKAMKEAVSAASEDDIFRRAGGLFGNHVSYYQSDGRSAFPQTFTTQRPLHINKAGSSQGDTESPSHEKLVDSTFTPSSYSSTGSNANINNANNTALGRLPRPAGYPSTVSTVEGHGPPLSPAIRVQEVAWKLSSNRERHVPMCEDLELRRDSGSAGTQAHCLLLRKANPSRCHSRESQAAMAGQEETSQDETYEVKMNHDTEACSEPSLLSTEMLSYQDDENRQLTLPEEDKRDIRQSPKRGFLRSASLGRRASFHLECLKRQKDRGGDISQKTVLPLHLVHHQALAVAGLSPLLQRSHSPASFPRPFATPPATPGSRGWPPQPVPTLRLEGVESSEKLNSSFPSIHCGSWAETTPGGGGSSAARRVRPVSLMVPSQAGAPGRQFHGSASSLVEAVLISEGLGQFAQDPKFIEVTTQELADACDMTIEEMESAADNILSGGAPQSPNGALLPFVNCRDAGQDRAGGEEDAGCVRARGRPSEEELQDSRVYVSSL
Sequence (P54289 25-1103 partner): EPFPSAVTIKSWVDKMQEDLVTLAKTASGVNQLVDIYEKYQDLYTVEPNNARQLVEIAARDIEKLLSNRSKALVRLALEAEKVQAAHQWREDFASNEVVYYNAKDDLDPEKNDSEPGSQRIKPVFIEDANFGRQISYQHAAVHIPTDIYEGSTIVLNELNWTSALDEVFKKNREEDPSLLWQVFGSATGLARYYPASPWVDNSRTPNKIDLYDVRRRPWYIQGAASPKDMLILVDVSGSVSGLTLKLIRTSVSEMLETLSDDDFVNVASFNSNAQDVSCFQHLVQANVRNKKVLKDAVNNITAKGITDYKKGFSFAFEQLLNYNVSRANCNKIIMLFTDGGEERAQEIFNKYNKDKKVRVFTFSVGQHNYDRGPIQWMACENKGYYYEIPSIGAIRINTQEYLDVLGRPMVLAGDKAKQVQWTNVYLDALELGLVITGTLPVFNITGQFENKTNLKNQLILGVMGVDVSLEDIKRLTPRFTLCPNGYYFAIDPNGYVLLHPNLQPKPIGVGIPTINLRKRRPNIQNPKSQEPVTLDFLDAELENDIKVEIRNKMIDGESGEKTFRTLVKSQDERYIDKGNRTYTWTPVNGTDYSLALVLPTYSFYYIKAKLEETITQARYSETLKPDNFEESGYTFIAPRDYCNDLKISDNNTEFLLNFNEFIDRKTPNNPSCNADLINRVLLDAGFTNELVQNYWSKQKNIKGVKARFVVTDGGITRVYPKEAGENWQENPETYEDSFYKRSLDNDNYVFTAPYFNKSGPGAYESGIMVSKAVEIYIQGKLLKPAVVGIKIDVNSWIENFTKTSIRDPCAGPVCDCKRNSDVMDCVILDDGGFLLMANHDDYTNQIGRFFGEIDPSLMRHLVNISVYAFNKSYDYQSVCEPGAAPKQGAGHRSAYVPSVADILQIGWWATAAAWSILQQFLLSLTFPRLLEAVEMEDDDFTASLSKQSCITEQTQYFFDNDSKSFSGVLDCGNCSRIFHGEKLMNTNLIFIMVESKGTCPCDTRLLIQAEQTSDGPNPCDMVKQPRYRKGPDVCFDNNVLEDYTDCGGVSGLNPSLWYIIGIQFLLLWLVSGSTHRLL
Sequence (Q08289 whole entry partner): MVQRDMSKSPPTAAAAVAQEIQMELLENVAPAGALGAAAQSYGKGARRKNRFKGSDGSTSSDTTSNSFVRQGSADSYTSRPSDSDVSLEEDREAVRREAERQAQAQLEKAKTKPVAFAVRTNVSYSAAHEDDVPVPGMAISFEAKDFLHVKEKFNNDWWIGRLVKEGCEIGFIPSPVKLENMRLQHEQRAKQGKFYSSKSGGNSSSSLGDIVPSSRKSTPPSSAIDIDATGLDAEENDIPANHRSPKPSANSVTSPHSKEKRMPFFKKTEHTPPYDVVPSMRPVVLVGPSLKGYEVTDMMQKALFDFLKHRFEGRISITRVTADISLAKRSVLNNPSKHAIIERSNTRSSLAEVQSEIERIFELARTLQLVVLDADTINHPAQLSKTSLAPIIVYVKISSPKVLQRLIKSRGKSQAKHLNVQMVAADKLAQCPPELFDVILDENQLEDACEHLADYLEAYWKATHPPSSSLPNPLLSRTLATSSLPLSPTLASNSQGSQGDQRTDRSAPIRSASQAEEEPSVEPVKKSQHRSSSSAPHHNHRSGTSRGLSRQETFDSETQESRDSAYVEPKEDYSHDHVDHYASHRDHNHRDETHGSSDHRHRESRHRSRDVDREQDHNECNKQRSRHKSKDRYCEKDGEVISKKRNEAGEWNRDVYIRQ
ASSAY_REMARKS: FLIPR data, CAv1.2 channel blocking (Table 6)
Assay type: cell-based
MEASUREMENT_CONTEXT: inactivated state, read-out: CAv1.2 IC50 Inact.
The quantity pIC50 is defined as the negative base-10 logarithm of the molar concentration.

INPUT: Requested read-out pIC50, target or system CAv1.2 (Homo sapiens, UniProt Q13936), entry CC(C)([C@H]1C[C@@H](NS(=O)(=O)c2ccc(C(F)(F)F)nc2)C1)S(=O)(=O)c1cc(F)cc(C(F)(F)F)c1
OUTPUT: 5.40

INPUT: Requested read-out pIC50, target or system CAv1.2 (Homo sapiens, UniProt Q13936), entry CC(C)([C@H]1C[C@@H](NC(=O)c2ccc(Cl)c(F)c2)C1)S(=O)(=O)c1cc(F)cc(C(F)(F)F)c1
OUTPUT: 5.74

INPUT: Requested read-out pIC50, target or system CAv1.2 (Homo sapiens, UniProt Q13936), entry CC(C)([C@H]1C[C@@H](NS(=O)(=O)c2ccc(F)c(Cl)c2)C1)S(=O)(=O)c1cc(F)cc(C(F)(F)F)c1
OUTPUT: 5.52

INPUT: Requested read-out pIC50, target or system CAv1.2 (Homo sapiens, UniProt Q13936), entry CC(C)(C1CC(CNC(=O)c2ccnc(C(F)(F)F)n2)C1)S(=O)(=O)c1cccc(C(F)(F)F)c1 (stereo not shown)
OUTPUT: 5.25

INPUT: Requested read-out pIC50, target or system CAv1.2 (Homo sapiens, UniProt Q13936), entry CC(C)(C1CC(CNC(=O)c2ccc(OCC(F)(F)F)nc2)C1)S(=O)(=O)c1cccc(C(F)(F)F)c1 (stereo not shown)
OUTPUT: 5.87

INPUT: Requested read-out pIC50, target or system CAv1.2 (Homo sapiens, UniProt Q13936), entry CC(C)([C@H]1C[C@@H](NC(=O)c2ccnc(C(F)(F)F)n2)C1)S(=O)(=O)c1cccc(OC(F)(F)F)c1
OUTPUT: 5.07

INPUT: Requested read-out pIC50, target or system CAv1.2 (Homo sapiens, UniProt Q13936), entry CC(C)([C@H]1C[C@@H](NC(=O)c2cnc(C(F)(F)F)nc2)C1)S(=O)(=O)c1cccc(C(F)(F)F)c1
OUTPUT: 5.00

INPUT: Requested read-out pIC50, target or system CAv1.2 (Homo sapiens, UniProt Q13936), entry CC(C)([C@H]1C[C@@H](CNC(=O)c2ncc(C(F)(F)F)cn2)C1)S(=O)(=O)c1cccc(C(F)(F)F)c1
OUTPUT: 5.27

INPUT: Requested read-out pIC50, target or system CAv1.2 (Homo sapiens, UniProt Q13936), entry CC(C)S(=O)(=O)c1cc(C(F)(F)F)cnc1C(=O)N[C@H]1C[C@@H](C(C)(C)S(=O)(=O)c2cccc(OC(F)(F)F)c2)C1
OUTPUT: 5.17

INPUT: Requested read-out pIC50, target or system CAv1.2 (Homo sapiens, UniProt Q13936), entry CC(C)([C@H]1C[C@H](NC(=O)c2ccc(Cl)c(F)c2)C1)S(=O)(=O)c1cc(F)cc(C(F)(F)F)c1
OUTPUT: 5.84
